Listed here are compounds together with their documented viability, T/C.
- Tested on: 485368-065-R3-J5-PDC spheroids with HUVEC/MSC, viability;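 note: spheroids exposed to agents for seven days before readout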
- assay_comment: Anticancer human tumor 485368-065-R3-J5-PDC patient-derived pancreatic carcinoma cell line growth inhibition [RAS]
- condition_context: second compound 1 µM; first compound 0.003 µM; active compounds read low

compound	display_unit	viability, T/C
CCc1c2c(nc3ccc(O)cc13)-c1cc3c(c(=O)n1C2)COC(=O)[C@]3(O)CC + C#Cc1c(F)ccc2cc(O)cc(-c3ncc4c(N5CC6CCC(C5)N6)nc(OCC56CCCN5CC(F)C6)nc4c3F)c12	%	33.6
CCc1c2c(nc3ccc(O)cc13)-c1cc3c(c(=O)n1C2)COC(=O)[C@]3(O)CC + C=CC(=O)N1CCN(c2nc(OCC3CCCN3C)nc3c(F)c(-c4nc(N)cc(C)c4C(F)(F)F)c(Cl)cc23)C(C)C1	%	26.8
CC1(C)CCC(Nc2ncc(C(F)(F)F)c(-c3c[nH]c4c(P(C)(C)=O)c(C#N)ccc34)n2)CN1 (centres undefined) + C#Cc1c(F)ccc2cc(O)cc(-c3ncc4c(N5CC6CCC(C5)N6)nc(OCC56CCCN5CC(F)C6)nc4c3F)c12	%	55.8
CC1(C)CCC(Nc2ncc(C(F)(F)F)c(-c3c[nH]c4c(P(C)(C)=O)c(C#N)ccc34)n2)CN1 (centres undefined) + C=CC(=O)N1CCN(c2nc(OCC3CCCN3C)nc3c(F)c(-c4nc(N)cc(C)c4C(F)(F)F)c(Cl)cc23)C(C)C1	%	55.1
